measured-target: Histamine H3 receptor (Homo sapiens)
experimental-conditions: Compound concentration 10 µM
Description: PDSP Primary Binding target: HRH3 - Compounds are tested at 10 uM concentration, plate are incubated at room temperature in the dark for 90 minutes. Reaction are stopped by vacuum filtration onto 0.3% polyethyleneimine soaked filter mats using Filtermate harvester. Scintilation cocktail is then melted onto microwave-dried filters on a hot plate and the radio activity is counted in Microbia counter.
Recorded measurements of inhibition, one per entry
// units = %; emit number, no label

Solved cases (4 shown):
{"compound": "Cc1c(OCc2cccc(-c3ccc(C(=O)O)cc3)c2)cc2c(c1C)C(=O)C(C1CCCC1)C2 (stereo not given)", "inhibition (%)": 31.1}
{"compound": "COc1ccc(CNC(=O)c2cc(-c3cncc(Cl)c3)cnc2-c2ccccn2)nc1OC", "inhibition (%)": -2.53}
{"compound": "CN1C[C@H](C(=O)N[C@]2(C)O[C@@]3(O)[C@@H]4CCCN4C(=O)[C@H](Cc4ccccc4)N3C2=O)C[C@@H]2c3cccc4[nH]cc(c34)C[C@H]21", "inhibition (%)": 38.2}
{"compound": "CCOC(=O)c1cc(C#N)c(N2CCC(C(=O)NS(=O)(=O)Cc3ccccc3)CC2)nc1C", "inhibition (%)": 15}

Here is the next item to consider.
Need inhibition of O=C(O)c1cc(-c2ccc(C3CCNCC3)cc2)c2ccc(-c3ccc(C(F)(F)F)cc3)cc2c1 , thanks.
10.6
